Provenance of the data: patent US12583866B2

- MEASURED TARGET: recombinant human cIAP2-BIR3 protein (Homo sapiens, UniProt Q13489)
- Construct: recombinant human cIAP2-BIR3 protein; purchased Reaction biology APT-11-372
- Sequence (Q13489 238-349 limits assumed): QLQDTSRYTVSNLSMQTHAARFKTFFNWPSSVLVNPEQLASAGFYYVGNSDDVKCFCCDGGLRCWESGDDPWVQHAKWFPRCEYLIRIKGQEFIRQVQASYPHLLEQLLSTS
- PROCEDURE SUMMARY: Recombinant human c-IAP2-BIR3 biochemical assay (HTRF, peptide displacement)
- CONDITIONS USED: 3.7 nM cIAP2-BIR3, 3.7 nM AbuRPF-K(5-Fam)-NH2 peptide, read-out: Protein binding IC50 (nM) c-IAP2
ASSAY READOUT: IC50 (nM)

Sample records with IC50:
{"MOLECULE": "COCCOc1nc2c(cc1Cc1ccc(F)cc1)N(C(=O)CN1C[C@@H](C)NC[C@@H]1CN1[C@H](C)COC[C@H]1C)[C@@H](C)CO2 [Compound 89]", "MEASUREMENT UNITS": "nM", "IC50": 0.36}
{"MOLECULE": "C[C@@H]1CN(CC(=O)N2c3cc(Cc4ccc(F)cc4)c(C(=O)NC[C@@H]4CCCO4)nc3OC[C@@H]2C)[C@@H](CN2[C@H](C)COC[C@H]2C)CN1 [Compound 93]", "MEASUREMENT UNITS": "nM", "IC50": 0.46}
{"MOLECULE": "C[C@@H]1CN(CC(=O)N2c3cc(Cc4ccc(F)cc4)c(C(=O)N4CC[C@H](F)C4)nc3OC[C@@H]2C)[C@@H](CN2[C@H](C)COC[C@H]2C)CN1 [Compound 100]", "MEASUREMENT UNITS": "nM", "IC50": 0.44}

a: CC1CN(C(=O)CN2C[C@@H](C)NC[C@@H]2CN2CCOC[C@H]2C)c2cc(Cc3ccc(F)cc3)cnc2O1 (stereo partly drawn) [Compound 10]
b: C[C@@H]1CN(CC(=O)N2c3cc(Cc4ccc(F)cc4)c(NCC(F)(F)F)nc3OC[C@@H]2C)[C@@H](CN2[C@H](C)COC[C@H]2C)CN1 [Compound 112]
c: C[C@@H]1CN(CC(=O)N2c3cc(Cc4ccc(F)cc4)c(C(=O)N4CC[C@@H](F)C4)nc3OC[C@@H]2C)[C@@H](CN2[C@H](C)COC[C@H]2C)CN1 [Compound 101]
d: C[C@@H]1CN(CC(=O)N2c3cc(Cc4ccc(F)cc4)c(C(N)=O)nc3OC[C@@H]2C)[C@@H](CN2CCOCC2(C)C)CN1 [Example 61]
Place the items in sequence of falling IC50. # list labels per requested ordering a, d, b, c

a: C[C@@H]1CN(CC(=O)N2c3cc(Cc4ccc(F)cc4)c(C(=O)NCCN4CCN(C)CC4)nc3OC[C@@H]2C)[C@@H](CN2[C@H](C)COC[C@H]2C)CN1 [Compound 99]
b: C[C@@H]1CN(CC(=O)N2c3cc(Cc4ccc(F)cc4)cnc3OC[C@@H]2C)[C@@H](CN2CCOC[C@H]2C)CN1 [Compound 19A]
Sort a and b by IC50 descending and give the first. Pick one; state its label. a
(a: 0.43 nM, b: 0.25 nM)

A: C[C@@H]1CN(CC(=O)N2c3cc(Cc4ccc(F)cc4)c(CO)nc3OC[C@@H]2C)[C@@H](CN2CCOC[C@H]2CO)CN1 [Compound 54]
B: CC(C)C(=O)Nc1nc2c(cc1Cc1ccc(F)cc1)N(C(=O)CN1C[C@@H](C)NC[C@@H]1CN1[C@H](C)COC[C@H]1C)[C@@H](C)CO2 [Compound 118]
Sort A and B by IC50 descending and give the first. Pick one; state its label. A
(A: 2.8 nM, B: 0.19 nM)
